# STUDY_TARGET: T1, extracellular domain of CD47 fused to a His(×6)-Avi-tag (Homo sapiens, UniProt Q08722)
# T1 construct: CD47, extracellular domain; also called CD47-ECD
# T1 sequence (Q08722 whole entry, looked up, the tested form may be a part): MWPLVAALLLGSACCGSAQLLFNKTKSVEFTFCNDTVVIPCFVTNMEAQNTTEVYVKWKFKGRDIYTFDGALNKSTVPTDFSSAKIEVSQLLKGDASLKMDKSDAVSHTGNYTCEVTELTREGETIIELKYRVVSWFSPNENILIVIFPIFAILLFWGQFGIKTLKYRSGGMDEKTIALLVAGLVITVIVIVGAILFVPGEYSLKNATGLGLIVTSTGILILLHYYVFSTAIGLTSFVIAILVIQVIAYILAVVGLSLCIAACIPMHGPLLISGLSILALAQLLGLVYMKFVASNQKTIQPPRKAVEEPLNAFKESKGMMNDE
# METHOD_NOTES: ELISA; CD47-ECD coated on plates; phage-scFv site saturation mutants of BC31M4, detected with anti-M13-HRP; pH 6.5 and pH 7.4
# RUN_PARAMETERS: one partner purified

{"BINDER": "BC31M4 (phage-scFv form) with VL H38 replaced by arginine (scFv, V domains shown, VH of BC31M4: as the variable region of the heavy chain of m6 (PDB 7WN8) with A instead of T at residue 108 of HCDR3 (IMGT numbering); scFv linker; VL of BC31M4 (as the variable region of the light chain of m6, PDB 7WN8) with H38 (LCDR1, IMGT numbering) changed) VH: QVQLVQSGAEVKKPGASVKVSCKASGYTFTSYGISWVRQAPGQGLEWMGWISAYNGNTNYAQKLQGRVTMTTDTSTSTAYMELRSLRSDDTAVYYCARGAVYFDYWGQGTLVTVSS VL: EIVLTQSPATLSLSPGERATLSCRASQSLSRNRLAWYQQKPGQPPRLLIHWASTRESGVPDRFSGSGSGTDFTLTISSLQAEDVAVYYCQQHTQNTWTFGQGTKVEIK", "binding result": "binds"}
{"BINDER": "BC31M4 (phage-scFv form), wild type (scFv, V domains shown, VH of BC31M4: as the variable region of the heavy chain of m6 (PDB 7WN8) with A instead of T at residue 108 of HCDR3 (IMGT numbering); scFv linker; VL of BC31M4: as the variable region of the light chain of m6 (PDB 7WN8); also called wild-type BC31M4) VH: QVQLVQSGAEVKKPGASVKVSCKASGYTFTSYGISWVRQAPGQGLEWMGWISAYNGNTNYAQKLQGRVTMTTDTSTSTAYMELRSLRSDDTAVYYCARGAVYFDYWGQGTLVTVSS VL: EIVLTQSPATLSLSPGERATLSCRASQSLSRNHLAWYQQKPGQPPRLLIHWASTRESGVPDRFSGSGSGTDFTLTISSLQAEDVAVYYCQQHTQNTWTFGQGTKVEIK", "binding result": "binds"}
